target.or.system: Indoleamine 2,3-dioxygenase 1 (Homo sapiens, UniProt P14902)
Sequence (P14902 whole entry): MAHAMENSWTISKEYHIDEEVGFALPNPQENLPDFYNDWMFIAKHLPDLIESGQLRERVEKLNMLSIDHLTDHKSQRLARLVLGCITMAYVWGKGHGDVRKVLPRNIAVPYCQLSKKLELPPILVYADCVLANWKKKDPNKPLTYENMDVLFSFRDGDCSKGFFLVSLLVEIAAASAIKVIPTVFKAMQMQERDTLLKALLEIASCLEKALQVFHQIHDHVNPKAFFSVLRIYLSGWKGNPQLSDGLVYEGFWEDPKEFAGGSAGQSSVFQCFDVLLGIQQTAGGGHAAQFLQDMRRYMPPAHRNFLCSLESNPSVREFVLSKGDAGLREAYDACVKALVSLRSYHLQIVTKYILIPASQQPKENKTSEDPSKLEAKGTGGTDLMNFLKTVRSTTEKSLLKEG
experiment.description: Inhibition of human N-terminal His-tagged IDO1 expressed in Escherichia coli using D-Trp as substrate
# pIC50 annotations
Would you please state pIC50, meaning minus log10 of the concentration in mol/L, as a bare number?

Sample answers from the record:
Indoleamine 2,3-dioxygenase 1 (Homo sapiens, UniProt P14902) data for O/N=C(\Nc1ccc(F)c(Br)c1)c1nonc1NCc1ccccc1 ; its pIC50: 6.64

Indoleamine 2,3-dioxygenase 1 (Homo sapiens, UniProt P14902) data for CC(=O)NCCNc1nonc1/C(=N/O)Nc1ccc(F)c(Br)c1 ; its pIC50: 6.68

Indoleamine 2,3-dioxygenase 1 (Homo sapiens, UniProt P14902) data for NS(=O)(=O)NCCNc1nonc1C(=NO)Nc1ccc(F)c(Cl)c1 ; its pIC50: 6.92

Indoleamine 2,3-dioxygenase 1 (Homo sapiens, UniProt P14902) data for OCCNc1nonc1/C(=N/O)Nc1ccc(F)c(Br)c1 ; its pIC50: 6.77

---
Indoleamine 2,3-dioxygenase 1 (Homo sapiens, UniProt P14902) data for Nc1nonc1C(=Nc1ccc(F)c(Br)c1)NO ; its pIC50: 7.30

Reference for the values: ChEMBL document CHEMBL3997850
